molecular target: APJ receptor (Homo sapiens (Human), UniProt P35414); assay: [35S]GTPγS binding assay on membranes from CHO cells stably expressing human APJ receptor; conditions: membranes of CHO cells stably expressing human APJ receptor, means of several independent experiments, read-out: Activity hAPJ SPA EC50 IP
Sequence (P35414 whole entry): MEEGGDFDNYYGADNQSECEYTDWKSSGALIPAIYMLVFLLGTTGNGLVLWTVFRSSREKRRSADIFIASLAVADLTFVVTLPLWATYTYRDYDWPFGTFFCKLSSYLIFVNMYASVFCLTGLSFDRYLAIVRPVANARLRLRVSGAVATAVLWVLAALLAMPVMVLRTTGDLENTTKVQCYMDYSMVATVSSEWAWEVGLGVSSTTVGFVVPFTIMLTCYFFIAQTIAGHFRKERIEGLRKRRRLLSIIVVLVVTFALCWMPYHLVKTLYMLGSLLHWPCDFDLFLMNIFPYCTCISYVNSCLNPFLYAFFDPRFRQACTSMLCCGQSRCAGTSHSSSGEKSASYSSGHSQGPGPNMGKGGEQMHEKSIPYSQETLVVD
pEC50: −log10 of the molar value.
measurement.type: pEC50

compound: CC[C@H](Cc1ncc(F)cn1)S(=O)(=O)Nc1nnc(-c2ccc(C)o2)n1-c1c(OC)cccc1OC [Example 128.0]
reported: 8.96
--
compound: COc1cccc(OC)c1-n1c(NS(=O)(=O)[C@H](C)[C@H](O)c2cccc3nccn23)nnc1-c1ccc(C)o1 (racemic)
reported: 7.74
--
compound: COc1cccc(OC)c1-n1c(NS(=O)(=O)[C@H](C)[C@H](O)c2cscn2)nnc1-c1ccc(C)o1 (single isomer, unassigned) [Example 309.0]
reported: 7.21
